- study_target: BACE1 in primary mouse cortical neurons (mouse, UniProt P56818 46-501)
- Sequence (P56818 46-501): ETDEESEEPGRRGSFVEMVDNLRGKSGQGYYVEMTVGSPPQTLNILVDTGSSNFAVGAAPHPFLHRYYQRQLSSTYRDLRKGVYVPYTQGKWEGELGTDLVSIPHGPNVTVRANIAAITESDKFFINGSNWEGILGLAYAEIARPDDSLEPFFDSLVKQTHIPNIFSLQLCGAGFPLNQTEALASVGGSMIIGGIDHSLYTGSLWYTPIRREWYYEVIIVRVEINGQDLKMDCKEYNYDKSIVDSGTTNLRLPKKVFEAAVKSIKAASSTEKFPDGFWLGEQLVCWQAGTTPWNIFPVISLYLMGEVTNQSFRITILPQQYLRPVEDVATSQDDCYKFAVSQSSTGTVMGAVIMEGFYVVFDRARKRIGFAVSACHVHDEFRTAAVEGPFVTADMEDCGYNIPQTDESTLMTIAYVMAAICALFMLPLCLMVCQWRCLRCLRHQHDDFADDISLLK
- assay_details: cell-based or functional assay
Reported IC50, Abeta x-40 in mouse cortical neurons values for the following binders.
A number alone suffices; assume nM.

Reference set, count: 2
binder | endpoint_value
6298 (antibody, V domains shown, anti-BACE1 IgG) VH: QLQLQESGPGLVKPSETLSLTCTVSGGSISWSSYYWSWIRQPPGKGLEWIGNIYYSGSTYYNPSLKSRVTISVDTSKNQFSLKLSSVTAADTAVYYCARLGHGYNYFDLWGRGTLVTVSS VL: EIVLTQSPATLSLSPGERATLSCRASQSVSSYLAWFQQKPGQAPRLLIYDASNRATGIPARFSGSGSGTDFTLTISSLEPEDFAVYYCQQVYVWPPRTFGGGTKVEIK | 1.95
6291 (antibody, V domains shown, anti-BACE1 IgG) VH: QLQLQESGPGLVKPSETLSLTCTVSGGSISSSSYYWGWIRQPPGKGLEWIGMIYYSGSTWYNPSLKSRVTISVDTSKNQFSLKLSSVTAADTAVYYCARVGHGVSYFDLWGRGTLVTVSS VL: EIVLTQSPATLSLSPGERATLSCRASQSVSSYLAWYQQKPGQAPRLLIYGASKRATGIPARFSGSGSGTDFTLTISSLEPEDFAVYYCQQVYTWPPRTFGGGTKVEIK | 1.41

Now, please, on to the next binder.
Exam item: Quick one: IC50, Abeta x-40 in mouse cortical neurons for 6289 (antibody, V domains shown, anti-BACE1 IgG) VH: QLQLQESGPGLVKPSETLSLTCTVSGGSISSSSYYWGWIRQPPGKGLEWIGSIYRSGSTYYNPSLRSRVTISVDTSKNQFSLKLSSVTAADTAVYYCVRVGHGISYFDLWGRGTLVTVSS VL: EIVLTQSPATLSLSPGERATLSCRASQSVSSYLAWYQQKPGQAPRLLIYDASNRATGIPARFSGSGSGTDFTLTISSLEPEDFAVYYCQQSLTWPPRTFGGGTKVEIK ?
Marked response: 5.21
